tested on: Pseudomonas putida F264; experiment: Antibacterial activity, Heart Infusion Agar Dilution Method, Pseudomonas putida F264; type: cell-based; details: pH 7.2, read-out: Minimum Inhibitory Concentration
observable: MIC (µg/mL)
Your answer is read as µg/mL, so omit the unit and give the number.

molecule="CO/N=C(/C(=O)N[C@@H]1C(=O)N2C(C(=O)O)=CCC[C@H]12)c1csc(N)n1 (relative stereo)" test_system="Pseudomonas putida F264" observable=MIC measured_value=0.78

Exam item: Form: Entry = N[C@@H](C(=O)N[C@@H]1C(=O)N2C(C(=O)O)=CCC[C@H]12)c1ccccc1 [Example 26 B isomer] | System = Pseudomonas putida F264 | MIC = ____
Marked response: 100

Exam item: What would you report for CCN1CCN(C(=O)NC(C(=O)NC2C(=O)N3C(C(=O)O)=CCCC23)c2ccccc2)C(=O)C1=O (stereo in doubt) ?
Marked response: 6.25

====

tested on: Serratia marcescens T26; test: Antibacterial activity, Heart Infusion Agar Dilution Method, Serratia marcescens T26; type: cell-based; conditions: pH 7.2, read-out: Minimum Inhibitory Concentration
observable: MIC (µg/mL)
Your answer is read as µg/mL, so omit the unit and give the number.

# annotated cases, reported MIC shown
compound="CO/N=C(/C(=O)N[C@@H]1C(=O)N2C(C(=O)O)=CCC[C@H]12)c1csc(N)n1 (relative stereo)" observable=MIC measured_value=3.12
compound="CO/N=C(\\C(=O)N[C@@H]1C(=O)N2C(C(=O)O)=CCC[C@H]12)c1csc(N)n1 (relative stereo)" observable=MIC measured_value=0.78
compound="CO/N=C(/C(=O)N[C@@H]1C(=O)N2C(C(=O)O)=C[C@@H](C)C[C@H]12)c1csc(N)n1 (relative stereo)" observable=MIC measured_value=25

Shifting focus to the compound that follows.
Exam item: Which measured MIC value corresponds to CCN1CCN(C(=O)NC(C(=O)NC2C(=O)N3C(C(=O)O)=CCCC23)c2ccccc2)C(=O)C1=O (stereo in doubt) ?
Marked response: 25

====

tested on: Staphylococcus epidermidis; assay: Antibacterial activity, Heart Infusion Agar Dilution Method, Staphylococcus epidermidis; type: cell-based; conditions: pH 7.2, read-out: Minimum Inhibitory Concentration
observable: MIC

compound="C[C@@H]1C=C(C(=O)O)N2C(=O)[C@@H](NC(=O)[C@H](N)c3ccccc3)[C@H]2C1 (relative stereo) [Example 32]" measured_value="6.25 mg/L"

Exam item: Which measured MIC value corresponds to CO/N=C(\C(=O)N[C@@H]1C(=O)N2C(C(=O)O)=CCC[C@H]12)c1csc(N)n1 (relative stereo) [Example 40] ?
Marked response: 12.5 mg/L

Exam item: What would you report for N[C@@H](C(=O)N[C@@H]1C(=O)N2C(C(=O)O)=CCC[C@H]12)c1ccccc1 [Example 26 B isomer] ?
Marked response: 3.12 mg/L

Exam item: What would you report for CO/N=C(/C(=O)N[C@@H]1C(=O)N2C(C(=O)O)=CCC[C@H]12)c1csc(N)n1 (relative stereo) [Example 24] ?
Marked response: 100 mg/L

Exam item: What would you report for CO/N=C(\C(=O)N[C@@H]1C(=O)N2C(C(=O)O)=C[C@@H](C)C[C@H]12)c1csc(N)n1 (relative stereo) [Example 38] ?
Marked response: 12.5 mg/L

Exam item: What would you report for Cc1nnc(SCC2=C(C(=O)O)N3C(=O)[C@@H](NC(=O)Cn4cnnn4)[C@H]3SC2)s1 [Cefazolin, reference compound] ?
Marked response: 0.78 mg/L

Exam item: What would you report for CCN1CCN(C(=O)NC(C(=O)NC2C(=O)N3C(C(=O)O)=CCCC23)c2ccccc2)C(=O)C1=O (stereo in doubt) [Example 28] ?
Marked response: 3.12 mg/L
